# System: CCR1 (125I-MIP-1α binding to THP-1 cell membranes) (Homo sapiens)
# Construct: Membranes were prepared from THP-1 cells (ATCC. #TIB202); host or cells: THP-1 cells (membrane preparation)
# Sequence (P32246 1-355): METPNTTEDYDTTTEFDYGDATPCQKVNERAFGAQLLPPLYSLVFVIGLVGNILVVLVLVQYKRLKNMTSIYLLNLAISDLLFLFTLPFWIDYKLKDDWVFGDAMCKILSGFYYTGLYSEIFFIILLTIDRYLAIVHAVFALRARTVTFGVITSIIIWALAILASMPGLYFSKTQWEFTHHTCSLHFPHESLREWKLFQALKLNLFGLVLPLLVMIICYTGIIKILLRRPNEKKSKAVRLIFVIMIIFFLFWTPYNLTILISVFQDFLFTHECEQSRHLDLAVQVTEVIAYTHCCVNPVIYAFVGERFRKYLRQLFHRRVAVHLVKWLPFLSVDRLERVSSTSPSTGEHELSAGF
# Assay Notes: THP-1 cell membrane 125I-MIP-1α binding assay
# Condition Set: 0.1 to 0.2 nM 125I-MIP-1α, 60 min at room temperature, read-out: Inhibition of 125I-MIP-1α Binding to THP-1 Cell Membranes (Ki (nM))
Below, each entry is listed with its recorded Ki.

[
  {
    "Compound": "CC1(C)CN(CCC=C2c3cc(C(=O)O)ccc3OCc3ncccc32)CC[C@@]1(O)c1ccc(Cl)cc1 [Example 2]",
    "Ki": "> 1000 nM"
  },
  {
    "Compound": "O=C(O)c1ccc2c(c1)/C(=C/CCN1CCC(O)(c3ccc(Cl)cc3)CC1)c1cccnc1CO2 [Reference Example, reference compound]",
    "Ki": "7.8 nM"
  },
  {
    "Compound": "CC1(C)CN(CCC=C2c3cc(C(=O)O)ccc3OCc3ncccc32)CC[C@]1(O)c1ccc(Cl)cc1 [Example 1]",
    "Ki": "2.3 nM"
  }
]

With those in mind, consider the next compound.
[ask] Entry CC1(C)CN(CC/C=C2/c3cc(C(=O)O)ccc3OCc3ncccc32)CCC1(O)c1ccc(Cl)cc1 (racemic) [Example 3] has what Ki?
[reply] 3 nM
